- study.system: T1, human MASP-1 (human, UniProt P48740 20-699)
- T1 sequence: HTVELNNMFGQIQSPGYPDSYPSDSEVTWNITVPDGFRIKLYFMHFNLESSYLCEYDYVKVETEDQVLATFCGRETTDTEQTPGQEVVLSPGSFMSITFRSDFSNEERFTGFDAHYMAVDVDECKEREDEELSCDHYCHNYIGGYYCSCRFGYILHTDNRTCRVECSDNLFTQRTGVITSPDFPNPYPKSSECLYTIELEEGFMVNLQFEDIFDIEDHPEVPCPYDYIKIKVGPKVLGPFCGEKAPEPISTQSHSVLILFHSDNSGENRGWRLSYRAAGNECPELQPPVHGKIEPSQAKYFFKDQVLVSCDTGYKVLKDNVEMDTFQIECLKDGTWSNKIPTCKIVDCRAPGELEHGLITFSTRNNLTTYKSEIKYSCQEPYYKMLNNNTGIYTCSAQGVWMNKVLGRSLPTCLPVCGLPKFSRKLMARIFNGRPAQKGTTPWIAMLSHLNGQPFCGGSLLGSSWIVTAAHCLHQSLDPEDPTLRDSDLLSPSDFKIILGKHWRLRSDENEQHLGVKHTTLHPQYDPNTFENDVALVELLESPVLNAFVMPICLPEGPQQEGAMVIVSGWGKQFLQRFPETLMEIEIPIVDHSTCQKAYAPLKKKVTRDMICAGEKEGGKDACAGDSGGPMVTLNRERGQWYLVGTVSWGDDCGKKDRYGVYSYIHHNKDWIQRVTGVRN
- method.summary: cell-based or functional assay
Reported IC50 of inhibition of human C4c deposition (C4c ELISA, normal human serum on mannan) values follow for various binders
Entry rule: numbers only, all in µg/mL.

Sample answers from the record:
MAS0114bb (antibody, human IgG4 S228P, kappa, V domains shown, Rabbit/human chimeric antibody: rabbit variable regions recombined with F760G4 and kOMTC constant regions; also called anti-MASP-1 chimeric mAb MAS0114bb) VH: QSVEESGGRLVTPGTPLTLTCTASGFDINNYAIHWVRQAPGEGLEWIGYIYARSGVTWYASWVKGRFTISKTSTTVDLKMTSLTTEDTATYFCARVLAGGGYANTGLSLWGPGTLVTVSS VL: DIVMTQTPSSVSAAVGGTVTIKCQASQNIGYSSAWYQQKPGQRPKLMIYGASTLASGVPSRFSGSGSGTEYTLTISGVQCDDAATYYCQSNYISSGSVDGTFGGGTKVEIKR | 0.14
MAS0177hh (antibody, human IgG4 S228P, kappa, V domains shown, Rabbit/human chimeric antibody: rabbit variable regions recombined with F760G4 and kOMTC constant regions; also called anti-MASP-1 chimeric mAb MAS0177hh) VH: QSVEESGGRLVTPGTPLTLTCTASGFSLSSAYMNWVRQAPGKGLEWIGIIYASGSTWYASWAKGRFTISKTSTTVDLKITSPTTEDTATYFCARDDYGTADLWGPGTLVTVSS VL: AVVLTQTASPVSAPVGGTVTIKCQASQSIGSSLAWYQQKPGQSPKLLIYGASTLVSGVSSRFSGSRSGTEFSLTISDLECADAATYYCQNYYLSSSSADRRTFGGGTKVEIKR | 3.29

Next up:
Looking up MAS0116aa (antibody, human IgG4 S228P, kappa, V domains shown, Rabbit/human chimeric antibody: rabbit variable regions recombined with F760G4 and kOMTC constant regions; also called anti-MASP-1 chimeric mAb MAS0116aa) VH: QSLEESGGRLVTPGTPLTLTCTASGFSLSSCYMSWVRQAPGEGLEWIGTIYTGSGATYYASWAKGRFTVSITSTTVDLKITSPTTEDTATYFCARAIYPGSSSSNLCAFDLWGPGTLVTVSS VL: QVLTQTPASVSAAVGGTVTINCQASQSVYDNNWLAWYQQKPGQPPKLLIYQASSLASGVPSRFKGSGSGAQFTLTISDLECDDAATYFCQGYYAGVLYSFGGGTKVEIKR , I see its IC50 of inhibition of human C4c deposition (C4c ELISA, normal human serum on mannan) listed as 0.47

src = patent US20210115154A1
